- MEASURED_ON: COX II (Homo sapiens)
- ASSAY_PROCEDURE: Inhibition of COX II in vitro, partially purified enzyme, radiometric assay
- Format: biochemical
- Parameters: made in house
- EXPERIMENTAL_CONDITIONS: 20 micromolar arachidonic acid
pIC50: −log10 of the molar value.

{"TEST_SMILES": "Cc1ccc(C(=O)c2c(Cl)cc(Cl)cc2Cl)cc1Cc1ccc(=O)n(C)n1", "pIC50": 6.74}
{"TEST_SMILES": "COc1ccc(C(=O)c2cccc(Cc3ccc(=O)[nH]n3)c2Cl)cc1", "pIC50": 7.00}
{"TEST_SMILES": "COc1ccc(C(=O)c2c(C)cc(C)cc2C)cc1Cc1ccc(=O)[nH]n1", "pIC50": 5.89}
{"TEST_SMILES": "O=C(c1cccc(Cc2ccc(=O)[nH]n2)c1)c1c(Cl)cc(Cl)cc1Cl", "pIC50": 5.70}
{"TEST_SMILES": "Cc1ccc(C(=O)c2c(Cl)cc(Cl)cc2Cl)cc1Cc1ccc(=O)[nH]n1", "pIC50": 6.74}
{"TEST_SMILES": "COc1ccc(C(=O)c2c(Cl)cc(C)cc2Cl)cc1Cc1ccc(=O)[nH]n1", "pIC50": 5.70}
{"TEST_SMILES": "COc1ccc(C(=O)c2c(Cl)cc(Cl)cc2Cl)cc1Cc1ccc(=O)[nH]n1", "pIC50": 6.22}

---

- MEASURED_ON: COX II (Homo sapiens, UniProt P35354)
- Sequence (P35354 18-604): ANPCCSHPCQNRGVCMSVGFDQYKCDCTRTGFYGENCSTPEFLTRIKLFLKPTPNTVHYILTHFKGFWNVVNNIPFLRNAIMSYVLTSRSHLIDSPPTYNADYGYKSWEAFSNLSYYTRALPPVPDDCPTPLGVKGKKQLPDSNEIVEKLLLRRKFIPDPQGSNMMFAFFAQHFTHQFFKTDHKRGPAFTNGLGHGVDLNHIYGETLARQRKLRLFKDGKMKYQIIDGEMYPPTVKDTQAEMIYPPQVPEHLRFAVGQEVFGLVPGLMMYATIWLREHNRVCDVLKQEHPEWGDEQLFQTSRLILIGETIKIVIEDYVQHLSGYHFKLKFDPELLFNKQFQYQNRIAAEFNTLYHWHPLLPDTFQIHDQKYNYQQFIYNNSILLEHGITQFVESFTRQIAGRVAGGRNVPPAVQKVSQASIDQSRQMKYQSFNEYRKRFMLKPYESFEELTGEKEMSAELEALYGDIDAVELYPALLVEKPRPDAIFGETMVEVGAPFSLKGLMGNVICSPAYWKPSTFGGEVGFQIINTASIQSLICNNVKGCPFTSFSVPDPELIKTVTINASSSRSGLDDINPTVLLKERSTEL
- ASSAY_PROCEDURE: Inhibition of COX II in a cell based assay (human foreskin fibroblasts, PGE2 ELISA)
- Set-up: host or cells: primary human foreskin fibroblasts (HFF), induced with PMA and human interleukin-1
- EXPERIMENTAL_CONDITIONS: human foreskin fibroblasts (HFF)
Mark criterion met only when IC50 stays strictly below 300 nM. Values equal to the cut-off are criterion not met.

{"TEST_SMILES": "O=C(c1ccc(F)c(Cc2ccc(=O)[nH]n2)c1)c1c(Cl)cc(Cl)cc1Cl", "CLASS_LABEL": "criterion met"}
{"TEST_SMILES": "COc1ccc(C(=O)c2c(Cl)cc(C)cc2Cl)cc1Cc1ccc(=O)[nH]n1", "CLASS_LABEL": "criterion not met"}
{"TEST_SMILES": "Cc1ccc(C(=O)c2c(Cl)cc(Cl)cc2Cl)cc1Cc1ccc(=O)[nH]n1", "CLASS_LABEL": "criterion not met"}
{"TEST_SMILES": "COc1ccc(C(=O)c2c(Br)cc(C)cc2Br)cc1Cc1ccc(=O)[nH]n1", "CLASS_LABEL": "criterion not met"}
{"TEST_SMILES": "COc1ccc(C(=O)c2cccc(Cc3ccc(=O)[nH]n3)c2C)cc1", "CLASS_LABEL": "criterion not met"}
{"TEST_SMILES": "COc1ccc(C(=O)c2c(Cl)cc(Cl)cc2Cl)cc1Cc1ccc(=O)n(C)n1", "CLASS_LABEL": "criterion not met"}
{"TEST_SMILES": "COc1ccc(C(=O)c2c(C)cc(C)cc2C)cc1Cc1ccc(=O)[nH]n1", "CLASS_LABEL": "criterion not met"}
{"TEST_SMILES": "O=C(c1ccc(Cl)c(Cc2ccc(=O)[nH]n2)c1)c1c(Cl)cc(Cl)cc1Cl", "CLASS_LABEL": "criterion met"}

Just for reference, patent US5886178A is where these values come from.
